system: Staphylococcus aureus NCTC 10788; test: ≥ marks a high value that may be exact or a test limit, other limits are often not marked, values filed in µg/mL are converted to µM
QUANTITY_MEASURED: MIC

Example entries and their recorded answers appear below.
COMPOUND_STRUCTURE_STRING	RECORDED_VALUE
CC[C@H](C)[C@H](NC(=O)[C@H](C)NC(=O)[C@H](CCCCN)NC(=O)[C@@H]1CCCN1C(=O)[C@@H](NC(=O)[C@H](CC(C)C)NC(=O)[C@H](CO)NC(=O)[C@H](Cc1ccccc1)NC(=O)[C@H](CC(C)C)NC(=O)[C@@H](N)Cc1ccccc1)[C@@H](C)CC)C(=O)NCC(=O)NCC(=O)N[C@@H](CC(C)C)C(=O)N[C@H](C(=O)N[C@@H](CO)C(=O)N[C@@H](C)C(=O)N[C@@H](Cc1ccccc1)C(=O)N[C@@H](CCCCN)C(N)=O)[C@@H](C)CC	3 µM
CC(C)C[C@H](NC(=O)[C@H](C)N)C(=O)N[C@@H](Cc1c[nH]c2ccccc12)C(=O)N[C@@H](CCCCN)C(=O)N[C@@H](CO)C(=O)N[C@@H](CC(C)C)C(=O)N[C@@H](CC(C)C)C(=O)N[C@@H](CCCCN)C(=O)N[C@@H](CC(N)=O)C(=O)N[C@H](C(=O)NCC(=O)N[C@@H](CCCCN)C(=O)N[C@@H](C)C(N)=O)C(C)C	≥ 64 µM

Consider the additional molecule presented here.
Inquiry: Could you share what MIC was measured for `CC(C)C[C@H](NC(=O)[C@H](CC(C)C)NC(=O)[C@H](CC(C)C)NC(=O)[C@@H]1CCCN1C(=O)[C@H](CC(C)C)NC(=O)[C@@H](N)Cc1ccccc1)C(=O)N[C@@H](C)C(=O)NCC(=O)N[C@@H](CC(C)C)C(=O)N1CCC[C@H]1C(=O)N[C@@H](CCCCN)C(=O)N[C@@H](Cc1ccccc1)C(=O)N[C@@H](CC(C)C)C(=O)N[C@H]1CSSC[C@@H](C(=O)O)NC(=O)[C@H](CCCCN)NC(=O)[C@H](CCCCN)NC(=O)[C@H](Cc2ccccc2)NC(=O)[C@H](C(C)C)NC(=O)[C@H](CC(C)C)NC1=O` , tested on Staphylococcus aureus NCTC 10788?
Reply text: 16 µM

Reference source for all entries: DBAASP
